experimental-system: T1, R3 (RHAMM-R3) peptide/HLA-A*02:01 complex on T2 cells (human)
T1 construct: Control target of the phage staining of T2 cells; also called T2 cells pulsed with R3 peptide; RHAMM 3 (R3)
test-protocol: flow cytometry, phage on T2 + R3 peptide (as the table names the samples); secondary only 109, unstained 80.9
readout-label: Median:FITC-A
Give the figure by itself; no unit, no explanation.

{"columns": ["binder", "reported"],
 "data": [
  ["EXT017-32 scFv phage clone (scFv, also called EXT017-32 phage; phage clone #32) scFv: QSVLTQPPSVSVAPGKTARITCGGNNIGSKSVHWYQQKPGQAPVLVIYYDSDRPSGIPERFSGSNSGNTATLTISRVEAGDEADYYCQVWDSSSDHYVFGTGTKVTVLGSRGGGGSGGGGSGGGGSLEMAEVQLVESGGGVVQPGRSLRLSCAASGFTFNNHAMHWVRQAPGKGLEWVAVISFDGDDKFYADSVKGRFTISRDNSRNTLFLQMNNLRPEDTAVYYCSRDPYHFASGSYSYFDYWGQGTLVTVSSTSGQAGQHHHHHHGAYPYDVPDYAS", 123],
  ["EXT017-17 scFv phage clone (scFv, fusion to the phage coat protein not described; also called EXT017-17 phage; phage clone #17) scFv: QSVLTQPPSVSGAPGQRVTISCTGSSSNIGAGYDVHWYQQLPGTAPKLLIYGNSNRPSGVPDRFSGSKSGTSASLAITGLQAEDEADYYCQSYDSSLSGYVFGTGTKVTVLGSRGGGGSGGGGSGGGGSLEMAEVQLVQSGAEVKKPGSSVKVSCKASGDTFSRYAISWVRQAPGQGLEWMGRIIPIFGTPNYAQKFQGRVTITADEFTSTAYMELSSLRSEDTAMYYCARSIYRYSEYDHWGQGTLVTVSSTSGQAGQHHHHHHGAYPYDVPDYAS", 124],
  ["EXT017-54 scFv phage clone (scFv, full-length scFv with His+HA tags; also called EXT017-54 phage) scFv: QAVLTQPPSLSGGPRQRVTISCSGSTSNIGKNGVSWYQQLPGKAPKLLIYNDHLLSSGVSDRFSGSKSGTSASLAISGLQSDDEADYYCATWDDTLDLPLFGGGTKVTVLGSRGGGGSGGGGSGGGGSLEMAQMQLVQSGAEVEKPGASVKLSCKASGGTFSSYAISWVRQAPGQGLEWMGGIIPIFGTANYAQKFQGRVTITADESTSTAYMELSSLRSEDTAVYYCARPSYYSIKSAWDHWGQGTLVTVSSTSGQAGQHHHHHHGAYPYDVPDYAS", 122]
]}

Consider EXT017-11 scFv phage clone (scFv, also called phage clone #11) scFv: NFMLTQPHSVSESPGKTVTISCTRSSGSIASNYVQWYQQRPGSAPTTVIYEDNQRPSGVPDRFSGSIDSSSNSASLTISGLKTEDEADYYCQSYDTNNYGVIFGGGTKLTVLGSRGGGGSGGGGSGGGGSLEMAQMQLVQSGAEVKKPGASVKVSCKTSGYTFNNYYMHWVRQAPGQGLEWMGIINPSGGSTNYAQKFQGRVTMTRDTSTSTVYMELSSLRSEDTAVYYCARSFDKQDIDYWGQGTLVTVSSTSGQAGQHHHHHHGAYPYDVPDYAS . Its measured Median:FITC-A is 119

Reported Median:FITC-A of EXT017-21 scFv phage clone (scFv, also called phage clone #21) scFv: SYELTQPPSVSVAPGQTASMTCGGNNIGSKSVHWYQQKPSQAPVMVVHDDSERPSGIPERISGSKSGNTATLTISRVEAGDEADYYCQVWDSSSDHVIFGGGTKLTVLGSRGGGGSGGGGSGGGGSLEMAQVQLVQSGAEVKKPGASVKVSCKASGYTFTNYYIHWVRQAPGQGLEWMGIIRPSGGITNYAQKFQGRVSMTRDTSTSTVYMELSSLRSEDTAVYYCARSWMSDSYYDGWGQGTLVTVSSTSGQAGQHHHHHHGAYPYDVPDYAS : 123
